assay.overview: yeast display, Sf9 membrane polyspecificity reagent, FACS + sequencing; frameworks hold sequencing errors
parameter: polyreactivity (PSR sort gate)

Here is how some sequences turned out for polyreactivity (PSR sort gate).
QVQLVESGGGLVQAGGSLRLSCAASGSIFYPYAMGWYRQAPGKERELVAAISSGGRTYYADSVKGRFTISRDNAKNTVYLQMNSLKPEDTAVFYCAARPKAYGRPPGYYWGQGTQVTVSS ... high polyreactivity
QVQLVESGGGLVQAGGSLRLSCAASGRTFDHYAMGWYIQAPGKERELVAAISNSDGSTNYADSVKGRFTISRDNAMNTVYLQMNSLKPEDTAVYYCNKLYRGGWYDYWGLGTQVTVSS ... low polyreactivity
QVQHVESAGGLVQAGGSLPLRCAASGSTFSPNALGGYSHAHGKERELVARITRSGSRTSYADSLKGRFTISRDNAKNPVYFQMNSLKPEDTAVYYCAAEGPKQYDYWGQGTHVTVSS ... low polyreactivity
QVQLVESGGGLVQAGGSLRLSCAASGFIFPVNAMGWYRQAPGKERELVAAITSSGGDTYYADSVKGRFTISRDNAKNTVYLQMNSLKPEDTAVYYCAAEYTQEQEDYDYWGQGTQVTVSS ... low polyreactivity
QVQLVESGGGLVQAGASLRLSCAASGFTLADNTMGWYRQAPGKERELVAAITSGASTYYADSVKGRFTISRDNAKNTVYLQMKSLKPEDTAVYYCAALYYWRSGYDYWGQGTQVTVSS ... low polyreactivity
QVQLVESGGGLDQAGGSLRLSCAASGFILDTYGMGWYRQATGTERELVAAISQSDVSTYYADSVKGRFTISRDNAKNTVYLQMNSLKPEDTAVYYCAAAHLSYRRRYESWGQGTQVTVSS ... low polyreactivity
QVQLEDSGGGLVQAGGSLRLSCAASGRIFTRYAMGWYRQAPGKERELVAVITRSGGSTYYADSVKGRFTISRDNAKNTVYLQMNSLKPEDTAVYYCAARYYWSVYADQGDYWGQGTQVTVSS ... low polyreactivity
QVQLVESGGGLVQAGGSLRLSCAASGRIFYSYAMGWYRQAPGKESELVAAIRSTGSTNYADSVKGRFTISRDNAKNTVYLQMNSLKPEDTAVYYCAARTSYRSSLFGYWGQGTQVTVSS ... high polyreactivity
QVQLVESGGGLVQAGGSLRLSCAASGYIFTSYATMGWYRQAPGKERELVATISSGGSTNYADSVKGRVTISRDNAKNTVYLQMNSLKPEDTAVYYCYADRFYTYWGYSWVYPSGSWGQGTQVTVSS ... low polyreactivity
QVQLVESGGGLVQAGGSLRLRCAASGRIFYFNAMGWYRQAPGKEREFVASINSIGDSTYYADSVKGRFTISRDTAKNTVYLQMNSLKPEDTAVYYCNADHGVINYRLDYWGQGTQVTVSS ... low polyreactivity

Which measured polyreactivity (PSR sort gate) value corresponds to QVQLVESGGGLVQAGGSLRLSCAASGRIFVHNAMGWSRQAPGKERELVAAISSGGSTYYADSVKGRFTISRDNAKNTVYLQMNSLKPEDTAVYYCAIYAYYNKYDYWGQGTQVTVSS ? high polyreactivity

What about this sequence? QVQLVESGGGLVQAGGSLRLSCAASGFTFKGNTMGWYRQAPGKERELVATITRGGTTYYADSVKGRFTISRDNAKNTVYLQMNSLKPEDTSVYYCAAVVYRPYRWQYDYWGQGTQVTVSS high polyreactivity

What about this sequence? QVQLVESGGGLVQAGGSLRLSCAASGFTFYKNAMGWYRQAPGKERELVAAITRRGSRTYYADSVKGRFTISRDNAKNTVYLQMNSLKPEDTAVYYCAADDGSDAEYYYWGQGTQVTVSS high polyreactivity

What about this sequence? QGQLVESVGGLVQAGVSLRLSCAASGRIFPSYAMGCYRPAPGKERELVAAISSSGGRTYYADSVKGRFTISRDNAKNTVYLQMNSLKPEDTAVYYCAARWVHYGVRYDYWGPGTQVTVSS high polyreactivity

What about this sequence? QVQLVESGGGLVQAGGSLRLSCAASGSTFRWYAMGWYRQAPGKERELVAAIRSSGGSTYYADSVKGRFTISRDNAKNTVYLQMNSLKPEDTAVYYCNTYPARNFYSVAGGYWGQGTQVTVSS low polyreactivity

What about this sequence? QVQLVESGGGLVQAGGSLRLSCAASGSIFRAYAMGWYRQAPGKERELVAGITKSGGSTYYADSVKGRFTISRDNAKNTVYLQMNSLKAEDTAVYYCAAYRSRTYGYWGQGTQVTVSS high polyreactivity

What about this sequence? QVQLEDSGGGLVQAGGSLRLSCAASGFTFGVYAMGWYRQAPGKQRELVAAITSGGGRTYADSVKWRFTISRDNAKNTVYLQMNSLKPEDTAVYYCAAEGVPLRVVWDYSYWDYDYDYWGQGTQVTVSS low polyreactivity

What about this sequence? QVQLVESGGGLVQAGGSLRLSCAASGSTFYINDMGWYRQAPGKERELVASISWRGGSTYADSVKGRFTISRDNAKNTDYLQMNSLKPEDTAVYYCAAEFDVYSHHWITSYDYWGQGTQVTVSS high polyreactivity

What about this sequence? QEQLQESGGGLVLAGGSLSLSCPESGYISWSFTMGWYRKAPGKEREFVAGITYGGITYYADSVKGRFTIRRDNGKNTVYLQLNSLKPEDTAVFYCAAPQTYPYVYVYWGQGTQVTVCS high polyreactivity

What about this sequence? QVQLVESGVGLVQAGGSLRLSCAASGNTFGKYAMGWYRQAPGTERELVATITRRGGSTYYADSVKGRFTISRDKAKNSVYLQMNSLKPEDTAVYYCNRAVTYVTYVYWGQGTQVTVSS high polyreactivity

What about this sequence? QVQLVESGGGLVQAGGSLRLSCAASGFIFWYYAMGWYRPAPGKERELVATITRGGSTYYADSVKGRFTISRDNAKNTVYLQLNSLKPEDTAVYYCNAVRPKIYDYWGQGTQVTLSS high polyreactivity
